- Test system: cytomegalovirus (CMV; AD-169 strain)
- assay-summary: Plaque Reduction Test for Cytomegalovirus
- Assay type: cell-based
- conditions: Human betaherpesvirus 5, AD169, MRC5, MRC-5 cells, read-out: IC₅₀ against CMV
value-type: IC50 (µg/mL)
Please respond with the number in µg/mL and leave the unit unwritten.

QUERY: Complete the entry with IC50 for Nc1nc2c(ncn2OC[C@@H]2COP(=O)(O)CO2)c(=O)[nH]1
RESULT: 17

QUERY: Assign IC50 to the following record: Nc1nc2c(ncn2OC[C@H](CO)OCP(=O)(O)O)c(=O)[nH]1
RESULT: 29

QUERY: Tell me its IC50 given Nc1nc2c(ncn2OC[C@H]2COP(=O)(O)CO2)c(=O)[nH]1 as the entry.
RESULT: 3

QUERY: Provide measured IC50 value, entry: Nc1nc2c(ncn2OC[C@@H](CO)OCP(=O)(O)O)c(=O)[nH]1
RESULT: 3
